System: SUDHL10
method: Induction of cytotoxicity (CellTiter-Glo, 5 h), SUDHL10
measurement parameters: Homo sapiens, SU-DHL10, 5 h, read-out: Cytotox SUDHL10 [M] (median), SUDHL10 cells, cytotoxicity induction, CellTiter-Glo, 5 h, median
Kindly state IC50 for each of the entries shown.

These solved cases illustrate the format of a correct answer.
{"molecule": "Cn1nc(CN2CCCCC2)c2c1COCCCCn1c(C(=O)O)c(CCCOc3cccc4ccccc34)c3cccc-2c31 (single isomer, unassigned; enantiomer 1) [Example 333]", "IC50": "> 3.3e-05 M"}
{"molecule": "COc1ccc2c(CCCOc3cccc4ccccc34)c(C(=O)O)n3c2c1-c1c(nn(C)c1C)COCCCC3 (racemic) [Example 349]", "IC50": "> 3.3e-05 M"}

Can you give me IC50 for all of these, one by one?
1. CC(=O)N(C)Cc1nn(C)c2c1-c1cccc3c(CCCOc4cccc5ccccc45)c(C(=O)O)n(c13)CCCCOC2 (racemic)
2. COc1ccc2c(CCCOc3cccc4ccccc34)c(C(=O)O)n3c2c1-c1c(C)nn(C)c1COCCCC3 (single isomer, unassigned; enantiomer 1)
3. Cc1c2c(nn1C)COCCCCn1c(C(=O)O)c(CCCOc3cccc4cc(C(F)(F)F)ccc34)c3cccc-2c31 (racemic) [Example 310]
4. Cn1nc(CN2CCCC2)c2c1COCCCCn1c(C(=O)O)c(CCCOc3cccc4ccccc34)c3cccc-2c31 (racemic) [Example 335]

1. > 3.3e-05 M
2. > 3.3e-05 M
3. 1.75e-05 M
4. 2.77e-05 M

Can you give me IC50 for all of these, one by one?
1. Cc1c2c(nn1C)COCCCCn1c(C(=O)O)c(CCc3ccc(C(F)(F)F)cc3)c3cccc-2c31 (racemic)
2. CC(=O)NCc1nn(C)c2c1-c1cccc3c(CCCOc4cccc5ccccc45)c(C(=O)O)n(c13)CCCCOC2 (single isomer, unassigned; enantiomer 1) [Example 340]

> 3.3e-05 M
> 3.3e-05 M

Can you give me IC50 for all of these, one by one?
1. Cc1nn(C)c2c1-c1cccc3c(CCCOc4cccc5cc(C(F)(F)F)ccc45)c(C(=O)O)n(c13)CCCCOC2
2. Cc1c2c(nn1C)COCCCCn1c(C(=O)O)c(CCCOc3cccc4cc(Cl)ccc34)c3cccc-2c31 (single isomer, unassigned) [Example 296]
3. CCc1nn(C)c2c1-c1cccc3c(CCCOc4cccc5c(F)cccc45)c(C(=O)O)n(c13)CCCCOC2 (single isomer, unassigned) [Example 299]
4. COc1ccc2c(CCCOc3cccc4ccccc34)c(C(=O)O)n3c2c1-c1c(nn(C)c1C)COCCCC3 (single isomer, unassigned; enantiomer 1) [Example 350]
5. CN1CCN(Cc2c3c(nn2C)COCCCCn2c(C(=O)O)c(CCCOc4cccc5ccccc45)c4cccc-3c42)CC1 (racemic)

> 3.3e-05 M
1.43e-05 M
> 3.3e-05 M
3.11e-05 M
> 3.3e-05 M

====

Kindly state IC50 for each of the entries shown.
target or test system: MCL-1 (Homo sapiens, UniProt Q07820)
Sequence (Q07820 whole entry): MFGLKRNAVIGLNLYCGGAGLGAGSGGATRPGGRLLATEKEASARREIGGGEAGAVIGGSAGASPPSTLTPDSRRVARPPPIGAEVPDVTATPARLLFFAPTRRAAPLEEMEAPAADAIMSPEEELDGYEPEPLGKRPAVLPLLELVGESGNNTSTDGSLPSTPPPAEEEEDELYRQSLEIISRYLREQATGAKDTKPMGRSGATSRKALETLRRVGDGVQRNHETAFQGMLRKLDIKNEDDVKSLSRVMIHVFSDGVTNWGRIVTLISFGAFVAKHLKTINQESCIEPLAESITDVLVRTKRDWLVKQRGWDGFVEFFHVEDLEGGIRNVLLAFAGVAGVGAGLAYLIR
method: Protein-protein interaction assay MCL-1/Noxa BH3 peptide (MCL-1 assay), TR-FRET
Format: binding
measurement parameters: MBP-MCL-1 / Noxa BH3-derived peptide, median
Give bare numbers, in nM.

These solved cases illustrate the format of a correct answer.
{"molecule": "Cc1ccc2c(C(C)CCOc3cccc4cc(F)ccc34)c(C(=O)O)n3c2c1-c1c(nn(C)c1C)COCCCC3 (single isomer, unassigned) [Example 280]", "IC50 / nM": 194}
{"molecule": "CN1CCCCn2c(C(=O)O)c(CCCOc3cccc4ccccc34)c3cccc(c32)-c2c(CC(F)(F)F)nn(C)c2C1 (single isomer, unassigned) [Example 223]", "IC50 / nM": 4.24}

Please give the measured IC50 for this molecule: Cc1c2c(nn1C)COCCCCn1c(C(=O)O)c(CCCOc3cccc4cc(F)ccc34)c3cccc-2c31 (single isomer, unassigned; enantiomer 2) [Example 302]
1.26
